Source of measurements: PubChem BioAssay (NCI)

System: U251 CNS
Test: NCI tumour cell line growth inhibition, 48 h
Items are presented alongside their recorded TGI.
result_type: TGI

molecule	value_observed
O=C(NNS(=O)(=O)c1ccc(F)cc1)c1cccnc1Nc1ccc(Cl)cc1Cl	> 100 µM
CCNc1nc2c(ncn2C2CC(O)C(COP(=O)(O)O)O2)c(=O)[nH]1 (configuration not stated)	> 100 µM
COC(OC)C1OC(CO)C(n2cc(F)c(=O)[nH]c2=O)C1O (configuration not stated)	> 100 µM
C#Cc1cccc(Oc2ccc(NC(=O)CCl)cc2)c1	> 82.5 µM
Cc1cc(C)c2c(SCc3ccc(Cl)cc3Cl)nc(N)nc2n1	> 100 µM
COc1cc(Cl)c2c3c(c(C(=O)c4ccccc4)oc13)CCC2	> 100 µM
CSCCC(NC(=O)OCc1ccccc1)P(=O)(O)c1ccccc1 (configuration not stated)	> 100 µM
CCSC1=N/C(=C/c2ccccc2O)C(=O)N1	> 100 µM
O=C1CC(c2ccc(Cl)cc2)C2(C(=O)NC(=O)NC2=O)C(c2ccc(Cl)cc2)C1 (configuration not stated)	> 75 µM
CC(=O)[C-](C(C)=O)c1ccccc1.CC(=O)[C-](C(C)=O)c1ccccc1.CC[O-].CC[O-].[Ti+4]	> 100 µM
Cc1ccccc1NC(=O)CC(=O)N1N=C(N2c3ccccc3Sc3ccccc32)CC1c1ccccc1 (configuration not stated)	> 100 µM
N[C@@H]1CCCC[C@@H]1N.O=C([O-])CN(CP(=O)([O-])[O-])CP(=O)([O-])[O-].[Pt+2]	> 100 µM
